Measured MIC (Yarrowia lipolytica)
Reply with just the number (in µg/mL).

CCCCCCCCCCCN1CCC[C@@H]2CCCC[C@H]21 (racemic) [Compound 5c] :: 5

The observed MIC for CCCCCCCCCCCN1CCN(C)CC1 [Compound 8b, 1-methyl-4-undecylpiperazine, reference compound] when tested with Yarrowia lipolytica stands at 10

The observed MIC for CCCCCCCCCN1CCC[C@@H]2CCCC[C@H]21 (racemic) [Compound 5a] when tested with Yarrowia lipolytica stands at 7.5

The observed MIC for CCCCCCCCCCN1CCC[C@@H]2CCCC[C@H]21 (racemic) [Compound 5b] when tested with Yarrowia lipolytica stands at 2.5

The observed MIC for CCCCCCCCCCCCN1CCC[C@@H]2CCCC[C@H]21 (racemic) [Compound 5d] when tested with Yarrowia lipolytica stands at 2.5

The observed MIC for CCCCCCCCCCCN1CCCCC1 [Compound 7, 1-undecylpiperidine, reference compound] when tested with Yarrowia lipolytica stands at 7.5

The observed MIC for CCCCCCCCCCN1CCNCC1 [Compound 8a, 1-decylpiperazine, reference compound] when tested with Yarrowia lipolytica stands at 10

The observed MIC for CCCCCCCCCCCN1CC[C@H]2CCCC[C@@H]2C1 (relative stereo) [C, N-n-undecyl-trans-decahydroisoquinoline, reference compound] when tested with Yarrowia lipolytica stands at 1.75

---

Reported values of melting point for individual entries
Structures can show the parent of a compound that is named as a salt.
Reply with just the number (in °C).

According to the records, this compound CCCCCCCCCCCCN1CCC[C@@H]2CCCC[C@H]21 (racemic) (as salt: hydrochloride) displays melting point of 113

According to the records, this compound CCCCCCCCCN1CCC[C@@H]2CCCC[C@H]21 (racemic) (as salt: hydrochloride) displays melting point of 130

According to the records, this compound CCCCCCCCCCN1CCC[C@@H]2CCCC[C@H]21 (racemic) (as salt: hydrochloride) displays melting point of 128

According to the records, this compound "CCCCCCCCCCN1CCCc2ccccc21.Cl" displays melting point of 61

---

Tested on: Candida glabrata (DSMZ-Nr.11226)
Assay: Agar diffusion assay
Type: cell-based
Settings: Nakaseomyces glabratus, C. glabrata, GI = growth inhibition, read-out: diameter of zones of total inhibition
Parameter threshold = 8 mm. Response is fulfilled when zone of inhibition at 50 µg/disc meets or exceeds it, else not fulfilled.

Record excerpt, results attached:
CN(C/C=C/C#CC(C)(C)C)Cc1cccc2ccccc12 [terbinafine, reference compound] :: not fulfilled
CCCCCCCCCN1CCC[C@@H]2CCCC[C@H]21 (racemic) [Compound 4a, (±)-trans-1-Nonyldecahydroquinoline] :: fulfilled
CCCCCCCCCCCN1CCC[C@@H]2CCCC[C@H]21 (racemic) [Compound 4c, (±)-trans-1-Undecyldecahydroquinoline] :: fulfilled
CCCCCCCCCCN1CCC[C@@H]2CCCC[C@H]21 (racemic) [Compound 4b, (±)-trans-1-Decyldecahydroquinoline] :: fulfilled
CCCCCCCCCCCN1CCCc2ccccc21 [Compound 2c, 1-Undecyl-1,2,3,4-tetrahydroquinoline] :: not fulfilled

Enquiry: Could you please find out whether CN(C)[C@@H]1C(O)=C(C(N)=O)C(=O)[C@@]2(O)C(O)=C3C(=O)c4c(O)cccc4[C@@](C)(O)[C@H]3C[C@@H]12 [tetracycline, reference compound] has zone of inhibition at 50 µg/disc that meets 8 mm or exceeds it?
Return: not fulfilled

Enquiry: Could you please find out whether CCCCCCCCCCCN1CCN(C)CC1 [Compound 8b, 1-methyl-4-undecylpiperazine, reference compound] has zone of inhibition at 50 µg/disc that meets 8 mm or exceeds it?
Return: fulfilled

Enquiry: Could you please find out whether CCCCCCCCCN1CCCc2ccccc21 [Compound 2a, 1-Nonyl-1,2,3,4-tetrahydroquinoline] has zone of inhibition at 50 µg/disc that meets 8 mm or exceeds it?
Return: not fulfilled
